Target: UniProt:P35372
Sequence (P35372 whole entry): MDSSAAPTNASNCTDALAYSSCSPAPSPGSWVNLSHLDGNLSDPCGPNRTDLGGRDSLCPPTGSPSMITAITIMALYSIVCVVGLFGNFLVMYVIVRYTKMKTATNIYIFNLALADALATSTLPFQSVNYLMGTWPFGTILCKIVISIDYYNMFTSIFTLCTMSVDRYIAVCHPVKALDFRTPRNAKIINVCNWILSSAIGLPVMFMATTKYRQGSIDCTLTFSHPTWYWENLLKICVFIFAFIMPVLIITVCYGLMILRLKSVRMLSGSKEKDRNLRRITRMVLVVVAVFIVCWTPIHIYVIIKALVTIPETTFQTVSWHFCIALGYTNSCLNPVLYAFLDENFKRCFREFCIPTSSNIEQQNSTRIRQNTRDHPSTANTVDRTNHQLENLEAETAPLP
Assay: Agonist activity at mu opioid receptor (unknown origin) expressed in HEK293 cells assessed as change in cell morphology at 3.3 uM measured over 30 mins by label free binding assay relative to DAMGO
Assay type: cell-based
Where a SMILES comes first, the peptide text is derived from it. [ ]: non-standard residue; d: D form. ξ: configuration not given here. Dmt = Cc1cc(O)cc(C)c1C[C@H](N)C(=O)O; ξTiq(1-COOH) = O=C(O)C1NCCc2ccccc21
Exercise: for every item that follows, state its recorded Activity.
The figure you give is taken to be in %; do not add the unit.

Data request: Requested field: Activity. Item: Cc1cc(O)cc(C)c1C[C@H](N)C(=O)N1CCc2ccccc2C1C(=O)N[C@@H](Cc1c[nH]c2ccccc12)C(=O)N[C@@H](Cc1ccccc1)C(N)=O (some centres not stated) (H-[Dmt][ξTiq(1-COOH)]WF-NH2)
Data returned: 43

Data request: Requested field: Activity. Item: Cc1cc(O)cc(C)c1C[C@H](N)C(=O)N1CCc2ccccc2C1C(=O)N[C@@H](Cc1ccccc1)C(=O)N[C@@H](Cc1ccccc1)[C@H](O)C(N)=O (some centres not stated)
Data returned: 51

Data request: Requested field: Activity. Item: NC(=O)[C@H](Cc1ccccc1)NC(=O)[C@H](Cc1ccccc1)NC(=O)[C@@H]1CCCN1C(=O)[C@@H](N)Cc1ccc(O)cc1 [ENDOMORPHIN 2]
Data returned: 98

Data request: Requested field: Activity. Item: Cc1cc(O)cc(C)c1C[C@H](N)C(=O)N1CCc2ccccc2C1C(=O)N[C@@H](Cc1c[nH]c2ccccc12)C(=O)N[C@@H](Cc1ccccc1)[C@H](O)C(N)=O (some centres not stated)
Data returned: 50

Data request: Requested field: Activity. Item: Cc1cc(O)cc(C)c1C[C@H](N)C(=O)N1CCc2ccccc2C1C(=O)N[C@@H](Cc1ccccc1)C(=O)N[C@@H](Cc1ccccc1)[C@@H](O)C(N)=O (some centres not stated)
Data returned: 52

Data request: Requested field: Activity. Item: Cc1cc(O)cc(C)c1C[C@H](N)C(=O)N1CCc2ccccc2C1C(=O)N[C@@H](Cc1ccccc1)C(=O)N[C@@H](Cc1ccccc1)C(N)=O (some centres not stated) (H-[Dmt][ξTiq(1-COOH)]FF-NH2)
Data returned: 61

Data request: Requested field: Activity. Item: Cc1cc(O)cc(C)c1C[C@H](N)C(=O)N1CCc2ccccc2C1C(=O)N[C@@H](Cc1ccccc1)[C@@H](O)C(=O)N[C@@H](Cc1ccccc1)C(N)=O (some centres not stated)
Data returned: 42

====

Exercise: for every item that follows, state its recorded half-life at 10 µM.
Assay: Half life in rat brain homogenate at 10 uM
Assay type: ADME, tissue-based
Where a SMILES comes first, the peptide text is derived from it. [ ]: non-standard residue; d: D form. ξ: configuration not given here. Dmt = Cc1cc(O)cc(C)c1C[C@H](N)C(=O)O; ξTiq(1-COOH) = O=C(O)C1NCCc2ccccc21; β3hF = N[C@H](CC(=O)O)Cc1ccccc1
The figure you give is taken to be in h; do not add the unit.

Data request: Requested field: half-life at 10 µM. Item: Cc1cc(O)cc(C)c1C[C@H](N)C(=O)N1CCc2ccccc2C1C(=O)N[C@@H](Cc1ccccc1)C(=O)N[C@@H](Cc1ccccc1)[C@@H](O)C(N)=O (stereo partly drawn)
Data returned: 1.38

Data request: Requested field: half-life at 10 µM. Item: Cc1cc(O)cc(C)c1C[C@H](N)C(=O)N1CCc2ccccc2C1C(=O)N[C@@H](Cc1ccccc1)C(=O)N[C@H](CC(N)=O)Cc1ccccc1 (stereo partly drawn) (H-[Dmt][ξTiq(1-COOH)]F[β3hF]-NH2)
Data returned: 0.482
